Where do these numbers come from? They come from patent US8076338B2.

- System Under Test: AktK (Homo sapiens, UniProt P31749)
- Sequence (P31749 whole entry): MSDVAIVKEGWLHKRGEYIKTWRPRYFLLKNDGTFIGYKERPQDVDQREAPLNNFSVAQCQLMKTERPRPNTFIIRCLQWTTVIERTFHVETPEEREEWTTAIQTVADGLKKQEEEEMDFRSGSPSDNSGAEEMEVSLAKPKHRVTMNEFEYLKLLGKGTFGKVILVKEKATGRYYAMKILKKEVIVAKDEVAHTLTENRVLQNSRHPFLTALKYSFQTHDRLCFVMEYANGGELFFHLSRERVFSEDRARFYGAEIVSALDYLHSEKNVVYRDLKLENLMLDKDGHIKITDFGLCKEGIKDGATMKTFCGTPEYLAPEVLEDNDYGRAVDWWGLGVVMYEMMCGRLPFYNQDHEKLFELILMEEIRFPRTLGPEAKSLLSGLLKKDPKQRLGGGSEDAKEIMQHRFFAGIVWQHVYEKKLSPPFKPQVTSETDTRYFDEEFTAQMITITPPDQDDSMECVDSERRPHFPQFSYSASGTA
- Protocol Summary: Luciferase-coupled chemiluminescence kinase assay (ATP consumption)
- Format: biochemical
- Test Context: Table 1; class symbols per key; read-out: AKT-1 IC50
pIC50: −log10 of the molar value.
Recorded Endpoint: pIC50

Compound: COc1cccc(N2CCN(c3ncnc4[nH]nc(Br)c34)CC2)c1 [Entry 65]
Recorded Endpoint: pIC50
Meas Value: 5.00 to 6.00
//
Compound: Cc1ccc(N2CCN(c3ncnc4[nH]nc(Br)c34)CC2)cc1CCCN1CCCC1 [Entry 67]
Recorded Endpoint: pIC50
Meas Value: 5.00 to 6.00
//
Compound: Cc1c(NCCN(C)C)cc(OCC(C)C)cc1N1CCN(c2ncnc3[nH]nc(Br)c23)CC1 [Entry 195]
Recorded Endpoint: pIC50
Meas Value: > 7.00
//
Compound: Cc1c(NCCN2CCCC2)cc(OCC(C)(C)C)cc1N1CCN(c2ncnc3[nH]nc(Br)c23)CC1 [Entry 221]
Recorded Endpoint: pIC50
Meas Value: > 7.00
//
Compound: CCN(CC)CCCc1cc(Cl)cc(N2CCN(c3ncnc4[nH]nc(C(F)(F)F)c34)CC2)c1C [Entry 87]
Recorded Endpoint: pIC50
Meas Value: 6.00 to 7.00
//
Compound: COc1nccnc1N1CCN(c2ncnc3[nH]nc(Br)c23)CC1 [Entry 133]
Recorded Endpoint: pIC50
Meas Value: ≤ 5.00
//
Compound: CCC(=O)c1cc(NCCN2CCCC2)c(C)c(N2CCN(c3ncnc4[nH]nc(Br)c34)CC2)c1 [Entry 243]
Recorded Endpoint: pIC50
Meas Value: > 7.00
//
Compound: CCN(CC)CCOc1cccc(N2CCN(c3ncnc4[nH]nc(Br)c34)CC2)c1 [Entry 189]
Recorded Endpoint: pIC50
Meas Value: ≤ 5.00

---

- System Under Test: AktK (Homo sapiens)
- Protocol Summary: Luciferase-coupled chemiluminescence kinase assay (ATP consumption)
- Type: biochemical
- Test Context: read-out: AKT-1 IC50
- Method: One measure of inhibition is Ki. […] The Ki for a compound is determined from the IC50 based on three assumptions. First, only one compound molecule binds to the enzyme and there is no cooperativity. […] Kinase activity is measured as the percent of ATP consumed following the kinase reaction using luciferase-luciferin-coupled chemiluminescence. […] Total ATP consumption was limited to 25-60% and the IC50 values correlate well with those determined by radiometric assays.
Quick reference for IC50 among some compounds
Recorded Endpoint: IC50

Item Smiles: CCc1n[nH]c2ncnc(N3CCN(c4cc(Cl)c(O)cc4C)CC3)c12
Meas Value: 1000 to 10000 nM
--
Item Smiles: Cc1ccc(Cl)cc1N1CCN(c2ncnc3[nH]nc(/C=C/C(=O)O)c23)CC1
Meas Value: 100 to 1000 nM
--
Item Smiles: Clc1ccccc1N1CCN(c2ncnc3[nH]cnc23)CC1
Meas Value: ≥ 10000 nM
--
Item Smiles: Cc1ccc(Cl)cc1N1CCN(c2ncnc3[nH]ncc23)CC1
Meas Value: 1000 to 10000 nM
--
Item Smiles: Cc1ccc(Cl)cc1N1CCN(c2ncnc3[nH]nc(Cc4ccccc4)c23)CC1
Meas Value: 1000 to 10000 nM
--
Item Smiles: Cc1ccc(Cl)cc1N1CCN(c2ncnc3[nH]nc(-c4ccccc4)c23)CC1
Meas Value: 1000 to 10000 nM
--
Item Smiles: CCc1n[nH]c2ncnc(N3CCN(c4cc(Cl)c(OCCN(C)C)cc4C)CC3)c12
Meas Value: 1000 to 10000 nM
--
Item Smiles: Cc1ccc(Cl)cc1N1CCN(c2ncnc3[nH]nc(CC4CCNCC4)c23)CC1
Meas Value: 1000 to 10000 nM
--
Item Smiles: CCc1n[nH]c2ncnc(N3CCN(c4cc(Cl)cc(C#CCN(C)C)c4C)CC3)c12
Meas Value: 1000 to 10000 nM
